From: ChEMBL document CHEMBL4513216

- Tested on: Plasmodium berghei
- Method summary: Screen against P. berghei liver stage (PbLuc), transformed with Luciferase, at 10uM
- Type: functional, HepG2
- Experimental context: tested at 10 uM
In all, about 69,000 compounds went through this assay and about 8,600 (12%) showed an effect of 50% or more. This excerpt belongs to a sample that is enriched for strong results.
# Lookup of reported INHIBITION keyed by entry
The figure you give is taken to be in %; do not add the unit.

Example cases with answers are listed next.
Item under review: CS(=O)(=O)N1CCC(n2nnn(-c3ccccc3)c2=O)CC1 . Reported INHIBITION?
2.7

Suppose we examine the compound CC(=O)OC1CN(c2nc3c(Cl)cccc3s2)C1 ; what INHIBITION value has been reported?
-56.7

Requested read-out: INHIBITION. Entry: Cc1nnc([C@@]23CCO[C@@H]2CCN(S(C)(=O)=O)C3)o1
23.3

Form field: reported INHIBITION of Cc1cccc2nc(CN3CCCC3Cn3cccn3)cn12 (configuration not stated)
19.4

Request the reported INHIBITION associated with COc1cccc(CC(=O)NCC(Cc2ccc(F)cc2)C(N)=O)c1 (configuration not stated)
8.99

Query (compound): Cc1noc([C@@]23CCO[C@@H]2CCN(CC2CCOCC2)C3)n1 ; field requested: INHIBITION
17.3

Data request, read-out INHIBITION, for COc1ccccc1OCCn1c(C)c(C)oc1=O
48.2

Which INHIBITION reading was recorded for the compound Cc1cc(N(C)C)nc(N2CCN(C(C)c3nc(C)no3)CC2)n1 (configuration not stated) ?
-71.2

New cases:
Would you kindly share the measured INHIBITION for Cc1cn2nc(N3CCn4c(nnc4C(C)C)C3)sc2n1 ?
7.81

What measured INHIBITION goes with Cc1ccc(CNCC2CNc3cc(C)nn3C2)cn1 (configuration not stated) ?
33.35

# input compound: CCc1nnc2n1CCN(C(=O)c1ccnc(N(C)C)c1)C2 ; wanted: its INHIBITION
19.2

// lookup INHIBITION for Cc1cc(N(C)C)nc(N2CCn3c(C)nnc3C2)n1
51.1
